test-system: IRAK4 (Homo sapiens (Human), UniProt Q9NWZ3)
Sequence (Q9NWZ3 whole entry): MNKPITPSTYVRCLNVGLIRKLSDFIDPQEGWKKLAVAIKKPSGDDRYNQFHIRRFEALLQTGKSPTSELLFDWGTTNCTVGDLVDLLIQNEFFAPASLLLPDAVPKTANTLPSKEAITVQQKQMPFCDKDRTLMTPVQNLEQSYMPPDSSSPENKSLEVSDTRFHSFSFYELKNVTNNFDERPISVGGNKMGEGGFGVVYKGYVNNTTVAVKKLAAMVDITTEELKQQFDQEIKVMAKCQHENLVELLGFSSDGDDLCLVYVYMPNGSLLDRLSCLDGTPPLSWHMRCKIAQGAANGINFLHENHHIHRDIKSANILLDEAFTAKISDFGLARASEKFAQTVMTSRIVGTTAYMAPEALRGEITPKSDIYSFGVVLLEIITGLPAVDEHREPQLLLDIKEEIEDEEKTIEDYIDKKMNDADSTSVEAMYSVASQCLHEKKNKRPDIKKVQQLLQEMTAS

{"compound": "Cn1cc(-c2cccc(-c3ncc(-c4cnn(C)c4)c(N4CCCC(CNC(=O)OC(C)(C)C)C4)n3)c2)cn1 (stereo not drawn)", "IC50": "> 5000 nM"}
{"compound": "Cn1cc(-c2cccc(-c3ncc(-c4cnn(C)c4)c(N[C@H]4C[C@@H](S(C)(=O)=O)C4)n3)c2)cn1", "IC50": "100 to 1000 nM"}
{"compound": "Cn1cc(-c2cccc(-c3ncc(-c4cnn(C)c4)c(NCC4CCNC4)n3)c2)cn1 (stereo not drawn)", "IC50": "100 to 1000 nM"}
{"compound": "Cn1cc(-c2cccc(-c3ncc(-c4cnn(C)c4)c(NCC4(F)CCN(S(C)(=O)=O)CC4)n3)c2)cn1", "IC50": "100 to 1000 nM"}
{"compound": "Cn1cc(-c2cccc(-c3ncc(-c4cnn(C)c4)c(NC45CCC(NS(C)(=O)=O)(CC4)CC5)n3)c2)cn1", "IC50": "< 100 nM"}
{"compound": "Cn1cc(-c2cccc(-c3ncc(-c4ccn(C)n4)c(NCCCN4CCOCC4)n3)c2)cn1", "IC50": "> 5000 nM"}
{"compound": "CC(C)Nc1nc(-c2cccc(-c3cnn(C)c3)c2)ncc1-c1nnc(C(=O)N2CC[C@@H](O)C2)s1", "IC50": "< 100 nM"}
{"compound": "Cn1cc(-c2cccc(-c3ncc(-c4cnn(C)c4)c(NCC4(F)CCNCC4)n3)c2)cn1", "IC50": "1000 to 5000 nM"}
{"compound": "Cn1cc(-c2cccc(-c3ncc(-c4cnn(C)c4)c(N4CCC(CO)C4)n3)c2)cn1 (stereo not drawn)", "IC50": "100 to 1000 nM"}
{"compound": "Cc1nnc(-c2cnc(-c3cccc(-c4cnn(C)c4)c3)nc2NCCN2CCOCC2)s1", "IC50": "< 100 nM"}
{"compound": "COC(=O)[C@@H]1CCC[C@H](Nc2nc(-c3cccc(-c4cnn(C)c4)c3)ncc2-c2cnn(C)c2)C1", "IC50": "< 100 nM"}
{"compound": "Cn1cc(-c2cccc(-c3ncc(-c4cnn(C)c4)c(NC4CCC5CN(S(C)(=O)=O)CC54)n3)c2)cn1 (stereo not drawn)", "IC50": "< 100 nM"}
{"compound": "Cn1cc(-c2cccc(-c3ncc(-c4cnn(C)c4)c(N[C@H]4CC[C@H](N)CC4)n3)c2)cn1", "IC50": "< 100 nM"}
{"compound": "Cn1cc(-c2cccc(-c3ncc(-c4cnn(C)c4)c(N[C@H]4C[C@@H](CNS(C)(=O)=O)C4)n3)c2)cn1", "IC50": "< 100 nM"}
{"compound": "Cn1cc(-c2cccc(-c3ncc(-c4cnn(C)c4)c(N4CCC(CCO)C4)n3)c2)cn1 (stereo not drawn)", "IC50": "1000 to 5000 nM"}

----------
Assay read-out pIC50; system under study: IRAK1 (His-TEV-IRAK1 (194-712)) (Homo sapiens (Human)).
Sequence (P51617 194-712): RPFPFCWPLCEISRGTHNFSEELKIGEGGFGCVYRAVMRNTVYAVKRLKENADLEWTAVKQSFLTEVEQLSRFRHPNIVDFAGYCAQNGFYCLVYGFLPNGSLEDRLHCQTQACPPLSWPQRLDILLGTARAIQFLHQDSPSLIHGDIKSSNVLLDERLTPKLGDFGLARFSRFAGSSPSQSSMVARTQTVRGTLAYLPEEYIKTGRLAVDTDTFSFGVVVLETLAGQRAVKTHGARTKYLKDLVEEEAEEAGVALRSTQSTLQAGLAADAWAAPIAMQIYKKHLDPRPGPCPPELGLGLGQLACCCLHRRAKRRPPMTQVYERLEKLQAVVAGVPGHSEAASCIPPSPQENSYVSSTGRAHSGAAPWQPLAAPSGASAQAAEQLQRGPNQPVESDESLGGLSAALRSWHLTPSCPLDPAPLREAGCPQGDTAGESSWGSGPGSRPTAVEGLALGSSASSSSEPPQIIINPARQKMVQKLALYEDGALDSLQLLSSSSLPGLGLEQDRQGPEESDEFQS
pIC50: −log10 of the molar value. Structures can show the parent of a compound that is named as a salt.
measured-property: pIC50

{"molecule": "Cn1cc(-c2cccc(-c3ncc(-c4ccn(C)n4)c(NCCCC(C)(C)O)n3)c2)cn1", "test-system": "IRAK1 (His-TEV-IRAK1 (194-712)) (Homo sapiens (Human))", "observed-result": "5.30 to 6.00"}
{"molecule": "Cn1cc(-c2cccc(-c3ncc(-c4ccn(C)n4)c(OCC4CCCCO4)n3)c2)cn1 (stereo not drawn)", "test-system": "IRAK1 (His-TEV-IRAK1 (194-712)) (Homo sapiens (Human))", "observed-result": "< 5.30"}
{"molecule": "Cn1cc(-c2cccc(-c3ncc(-c4cnn(C)c4)c(NC4CCCCC4O)n3)c2)cn1 (stereo not drawn)", "test-system": "IRAK1 (His-TEV-IRAK1 (194-712)) (Homo sapiens (Human))", "observed-result": "6.00 to 7.00"}
{"molecule": "CN(CC1CC(F)(F)C1)c1nc(-c2cccc(-c3cnn(C)c3)c2)ncc1-c1cnn(C)c1", "test-system": "IRAK1 (His-TEV-IRAK1 (194-712)) (Homo sapiens (Human))", "observed-result": "5.30 to 6.00"}
{"molecule": "Cn1cc(-c2cccc(-c3ncc(-c4cnn(C)c4)c(NCC4CCNC(=O)C4)n3)c2)cn1 (stereo not drawn)", "test-system": "IRAK1 (His-TEV-IRAK1 (194-712)) (Homo sapiens (Human))", "observed-result": "5.30 to 6.00"}
{"molecule": "Cn1cc(-c2cccc(-c3ncc(-c4cnn(C)c4)c(NCCN)n3)c2)cn1", "test-system": "IRAK1 (His-TEV-IRAK1 (194-712)) (Homo sapiens (Human))", "observed-result": "< 5.30"}
{"molecule": "Cn1cc(-c2cccc(-c3ncc(-c4cnn(C)c4)c(N[C@H]4CC[C@@H](O)CC4)n3)c2)cn1", "test-system": "IRAK1 (His-TEV-IRAK1 (194-712)) (Homo sapiens (Human))", "observed-result": "6.00 to 7.00"}
{"molecule": "Cn1cc(-c2cccc(-c3ncc(-c4cnn(C)c4)c(N4CCNCC4)n3)c2)cn1", "test-system": "IRAK1 (His-TEV-IRAK1 (194-712)) (Homo sapiens (Human))", "observed-result": "< 5.30"}
{"molecule": "Cn1cc(-c2cccc(-c3ncc(-c4cnn(C)c4)c(NCC4CCCNC4)n3)c2)cn1 (stereo not drawn) [Example 4, Hydrochloride]", "test-system": "IRAK1 (His-TEV-IRAK1 (194-712)) (Homo sapiens (Human))", "observed-result": "5.30 to 6.00"}
{"molecule": "Cn1cc(-c2cccc(-c3ncc(-c4cnn(C)c4)c(N[C@H]4C[C@@H](O)C4)n3)c2)cn1", "test-system": "IRAK1 (His-TEV-IRAK1 (194-712)) (Homo sapiens (Human))", "observed-result": "6.00 to 7.00"}
{"molecule": "Cn1cc(-c2cccc(-c3ncc(-c4cnn(C)c4)c(N4CC[C@H](F)[C@@H](O)C4)n3)c2)cn1", "test-system": "IRAK1 (His-TEV-IRAK1 (194-712)) (Homo sapiens (Human))", "observed-result": "6.00 to 7.00"}
{"molecule": "Cn1cc(-c2cccc(-c3ncc(-c4ccn(C)n4)c(N[C@H]4C[C@@H](S(C)(=O)=O)C4)n3)c2)cn1", "test-system": "IRAK1 (His-TEV-IRAK1 (194-712)) (Homo sapiens (Human))", "observed-result": "6.00 to 7.00"}
{"molecule": "Cn1cc(-c2cccc(-c3ncc(-c4cnn(C)c4)c(NCC4CCCN(C(=O)OC(C)(C)C)C4)n3)c2)cn1 (stereo not drawn)", "test-system": "IRAK1 (His-TEV-IRAK1 (194-712)) (Homo sapiens (Human))", "observed-result": "5.30 to 6.00"}
{"molecule": "Cn1cc(-c2cccc(-c3ncc(-c4ccn(C)n4)c(NCCCN4CCOC4=O)n3)c2)cn1", "test-system": "IRAK1 (His-TEV-IRAK1 (194-712)) (Homo sapiens (Human))", "observed-result": "< 5.30"}
{"molecule": "CN(CC1(F)COC1)c1nc(-c2cccc(-c3cnn(C)c3)c2)ncc1-c1cnn(C)c1", "test-system": "IRAK1 (His-TEV-IRAK1 (194-712)) (Homo sapiens (Human))", "observed-result": "5.30 to 6.00"}
{"molecule": "CC(=O)NCCCNc1nc(-c2cccc(-c3cnn(C)c3)c2)ncc1-c1cnn(C)c1", "test-system": "IRAK1 (His-TEV-IRAK1 (194-712)) (Homo sapiens (Human))", "observed-result": "< 5.30"}
{"molecule": "Cn1cc(-c2cccc(-c3ncc(-c4cnn(C)c4)c(NCCCCO)n3)c2)cn1", "test-system": "IRAK1 (His-TEV-IRAK1 (194-712)) (Homo sapiens (Human))", "observed-result": "5.30 to 6.00"}
{"molecule": "Cn1cc(-c2cccc(-c3ncc(-c4ccn(C)n4)c(N[C@H]4C[C@@H](N)C4)n3)c2)cn1", "test-system": "IRAK1 (His-TEV-IRAK1 (194-712)) (Homo sapiens (Human))", "observed-result": "< 5.30"}
{"molecule": "Cn1cc(-c2cccc(-c3ncc(-c4ccn(C)n4)c(NCCN4CCS(=O)(=O)CC4)n3)c2)cn1", "test-system": "IRAK1 (His-TEV-IRAK1 (194-712)) (Homo sapiens (Human))", "observed-result": "5.30 to 6.00"}
{"molecule": "CN[C@H]1CCC[C@H](Nc2nc(-c3cccc(-c4cnn(C)c4)c3)ncc2-c2cnn(C)c2)[C@@H]1O (racemic)", "test-system": "IRAK1 (His-TEV-IRAK1 (194-712)) (Homo sapiens (Human))", "observed-result": "< 5.30"}
{"molecule": "Cn1cc(-c2cccc(-c3ncc(-c4cnn(C)c4)c(N[C@@H]4CCN(S(C)(=O)=O)C4)n3)c2)cn1", "test-system": "IRAK1 (His-TEV-IRAK1 (194-712)) (Homo sapiens (Human))", "observed-result": "> 7.00"}
{"molecule": "Cn1cc(-c2cccc(-c3ncc(-c4cnn(C)c4)c(NCC4COC4)n3)c2)cn1", "test-system": "IRAK1 (His-TEV-IRAK1 (194-712)) (Homo sapiens (Human))", "observed-result": "6.00 to 7.00"}
{"molecule": "Cn1cc(-c2cccc(-c3ncc(-c4ccn(C)n4)c(N[C@H]4CCNC4)n3)c2)cn1", "test-system": "IRAK1 (His-TEV-IRAK1 (194-712)) (Homo sapiens (Human))", "observed-result": "< 5.30"}
{"molecule": "Cn1cc(-c2cccc(-c3ncc(-c4cnn(C)c4)c(NC45CC(N)(C4)C5)n3)c2)cn1", "test-system": "IRAK1 (His-TEV-IRAK1 (194-712)) (Homo sapiens (Human))", "observed-result": "6.00 to 7.00"}
{"molecule": "Cn1cc(-c2cccc(-c3ncc(-c4cnn(C)c4)c(N[C@H]4CC[C@H](O)CC4)n3)c2)cn1", "test-system": "IRAK1 (His-TEV-IRAK1 (194-712)) (Homo sapiens (Human))", "observed-result": "6.00 to 7.00"}
{"molecule": "Cn1cc(-c2cccc(-c3ncc(-c4cnn(C)c4)c(NCC4(NS(C)(=O)=O)CCCCC4)n3)c2)cn1", "test-system": "IRAK1 (His-TEV-IRAK1 (194-712)) (Homo sapiens (Human))", "observed-result": "6.00 to 7.00"}
{"molecule": "Cn1cc(-c2cccc(-c3ncc(-c4cnn(C)c4)c(NCCN4CCNC4=O)n3)c2)cn1", "test-system": "IRAK1 (His-TEV-IRAK1 (194-712)) (Homo sapiens (Human))", "observed-result": "5.30 to 6.00"}
{"molecule": "CC(Nc1nc(-c2cccc(-c3cnn(C)c3)c2)ncc1-c1cnn(C)c1)C1CCN(S(C)(=O)=O)CC1 (stereo not drawn)", "test-system": "IRAK1 (His-TEV-IRAK1 (194-712)) (Homo sapiens (Human))", "observed-result": "< 5.30"}
{"molecule": "Cn1cc(-c2cccc(-c3ncc(-c4cnn(C)c4)c(N[C@@H]4CCCC(F)(F)[C@H]4O)n3)c2)cn1", "test-system": "IRAK1 (His-TEV-IRAK1 (194-712)) (Homo sapiens (Human))", "observed-result": "6.00 to 7.00"}
{"molecule": "Cn1cc(-c2cccc(-c3ncc(-c4ccn(C)n4)c(NCC4CCNC(=O)C4)n3)c2)cn1 (stereo not drawn)", "test-system": "IRAK1 (His-TEV-IRAK1 (194-712)) (Homo sapiens (Human))", "observed-result": "5.30 to 6.00"}

All figures here come from patent US9790221B2.
